Source of measurements: PubChem BioAssay (NCI)

Some molecules, each annotated with its measured TGI.
Test system: OVCAR-8 ovarian
Test Summary: NCI tumour cell line growth inhibition, 48 h

Check out these entries, answers already filled in.
- Molecule: "CN(C)CCSC(=Nc1ccccc1)N1C=COC=C1"
  Tgt: "OVCAR-8 ovarian"
  Meas Value: "> 63.3 µM"
- Molecule: "CCOC(=O)c1ccc2c(c1)[n+](=O)c(C(=O)c1ccc3ccccc3c1)c(C(F)(F)F)n2[O-]"
  Tgt: "OVCAR-8 ovarian"
  Meas Value: "2.7 µM"
- Molecule: "COc1ccc(S(=O)(=O)N2CCN(C(=O)OCc3ccccc3)CC2C(=O)NO)cc1 (stereo not given)"
  Tgt: "OVCAR-8 ovarian"
  Meas Value: "> 25 µM"

Lookup: Answer with reported TGI of CC(=O)Nc1ccc2c3c(cc(O)c2c1)N(C(=O)CCCC(=O)Nc1ccc2c4c(cc(O)c2c1)N(C(=O)OC(C)(C)C)CC4CCl)CC3CCl (stereo not given)
Found: > 50 µM

Lookup: Identify measured TGI corresponding to Cc1[nH]c2ncn3ncnc3c2c1Cc1ccccc1
Found: > 100 µM

---

Tested on: NCI-H460 lung
Test Summary: NCI tumour cell line growth inhibition, 48 h
Reported Metric: TGI (µM)
Give a bare numeral; the unit µM is implied.

- Compound: "OC(c1ccc(F)cc1)C(F)(F)c1nc(-c2ccccc2)no1 (stereo unspecified)"
  Reported Metric: "TGI"
  Meas Value: 74.7
- Compound: "O=C(c1ccccc1)c1ccc(Cl)c([N+](=O)[O-])c1"
  Reported Metric: "TGI"
  Meas Value: 39.3

Lookup: Answer briefly: TGI recorded on NCI-H460 lung for Cn1cc(C2=C(c3c4n(c5ccccc35)CC(CN)C4)C(=O)NC2=O)c2ccccc21 (stereo unspecified)
Found: 7.8

---

# maps each entry to its TGI
System: CCRF-CEM leukemia
Test Summary: NCI tumour cell line growth inhibition, 48 h

- Molecule: "O=C(O)CN(CC(=O)O)Cc1cc2c(cc1O)Oc1cc(O)c(CN(CC(=O)O)CC(=O)O)cc1C21OC(=O)c2ccccc21"
  Meas Value: "> 100 µM"
- Molecule: "COc1cc(COC(=O)N2CCCCC2C(=O)O)c([N+](=O)[O-])cc1OC (stereo not given)"
  Meas Value: "> 100 µM"
- Molecule: "Cn1cc(C2=C(c3c4n(c5ccccc35)CC(CN)C4)C(=O)NC2=O)c2ccccc21 (stereo not given)"
  Meas Value: "25 µM"
- Molecule: "COC(=O)CCC(=O)CC(=O)C(=O)Nc1ccc(F)cc1"
  Meas Value: "> 100 µM"

Consider now this further molecule.
Lookup: Determine from records and report TGI for O=C1NC2OCC(O)C(O1)C2O (stereo not given)
Found: > 100 µM

---

Test system: CAKI-1 renal
Test Summary: NCI tumour cell line growth inhibition, 48 h
Reported TGI values for a set of compounds

Example entries begin here.
- Compound: "Cc1cc(C)nc(NS(=O)(=O)c2ccc(NC(=O)c3cccc4c(Nc5ccc(S(=O)(=O)Nc6nc(C)cc(C)n6)cc5)c5ccccc5nc34)cc2)n1"
  Tgt: "CAKI-1 renal"
  TGI: "51.6 µM"
- Compound: "C=C1C(=O)O[C@H]2[C@H]1CC/C(C=Nc1ccc(C(F)(F)F)cc1N)=C\\CC[C@@]1(C)O[C@@H]21"
  Tgt: "CAKI-1 renal"
  TGI: "16.7 µM"
- Compound: "CCOC(=O)N1CC2(C(=O)OC)C=CC1C(C(=O)OC)C2 (stereo not given)"
  Tgt: "CAKI-1 renal"
  TGI: "> 100 µM"

Lookup: Identify the reported TGI for the following entry. COC(=O)C(/C(=N/N)C(=O)Nc1ccc(C)c(C)c1)c1nc2ccc(Cl)cc2[nH]c1=O (stereo not given)
Found: > 100 µM

Lookup: Hello, please tell me recorded TGI for this one: Oc1ccc2ccccc2c1-c1c(Nc2ccccc2)ccc2ccccc12
Found: 28.1 µM

Lookup: Give the measured TGI for COc1cc2c(c(N)c1OC)C(=O)/C(=C/c1cc(C)c(O)c(C)c1)C2
Found: > 100 µM

Lookup: Annotate the compound CN(C)C(=S)N/N=C\C(=N/NC(=S)N(C)C)c1ccccc1 with its measured TGI.
Found: > 100 µM

Lookup: Write down TGI measured for item CC(C)=CCC/C(C)=C/CC/C(C)=C/CC/C=C(\C)CC/C=C(\C)CCC1SC1(C)C (stereo not given)
Found: > 100 µM

Lookup: Tell me TGI reported for COc1ccc(-c2nc(N(C)C)c3ccccc3n2)cc1
Found: > 100 µM
